Ref: patent US20210196796A1

Molecular target: T1, orthogonal hCD122 receptor (hoRb), hCD122 with H133D and Y134F (human, UniProt P14784 27-550)
T1 sequence: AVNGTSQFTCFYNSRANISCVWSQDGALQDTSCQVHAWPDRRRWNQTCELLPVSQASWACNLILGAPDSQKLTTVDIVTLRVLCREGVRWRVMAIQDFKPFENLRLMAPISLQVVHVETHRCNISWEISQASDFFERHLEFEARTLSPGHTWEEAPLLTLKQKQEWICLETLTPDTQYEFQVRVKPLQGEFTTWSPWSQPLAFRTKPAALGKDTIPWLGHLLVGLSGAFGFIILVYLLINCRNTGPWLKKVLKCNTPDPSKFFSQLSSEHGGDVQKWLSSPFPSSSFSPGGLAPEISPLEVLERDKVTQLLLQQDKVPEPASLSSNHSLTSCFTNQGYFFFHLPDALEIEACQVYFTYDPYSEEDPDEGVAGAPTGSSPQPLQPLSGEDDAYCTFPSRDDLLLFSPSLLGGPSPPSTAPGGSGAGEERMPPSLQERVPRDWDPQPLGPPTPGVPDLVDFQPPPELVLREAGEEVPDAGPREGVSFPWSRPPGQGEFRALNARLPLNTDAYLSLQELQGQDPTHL
Assay: cell-based or functional assay
reported endpoint: NKL Ortho Proliferation Signal 1:10
Numbers only.

INSERT INTO measurements (binder, quantitative_result) VALUES
  ('ΔQ13, SQVLKA (ligand) APTSSSTKKTQLLSQLLVLLKAILNGINNYKNPKLTRMLTFKFYMPKKATELKHLQCLEEELKPLEEVLNLAQSKNFHLRPRDLISNINVIVLELKGSETTFMCEYADETATIVEFLNRWITFCQSIISTLT', 20700),
  ('Q126G, SQVLKA (ligand) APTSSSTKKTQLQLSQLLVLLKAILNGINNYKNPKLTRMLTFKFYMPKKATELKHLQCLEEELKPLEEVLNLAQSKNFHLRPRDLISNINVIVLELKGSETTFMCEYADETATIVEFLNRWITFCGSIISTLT', 7220),
  ('D109C, SQVLKA (ligand) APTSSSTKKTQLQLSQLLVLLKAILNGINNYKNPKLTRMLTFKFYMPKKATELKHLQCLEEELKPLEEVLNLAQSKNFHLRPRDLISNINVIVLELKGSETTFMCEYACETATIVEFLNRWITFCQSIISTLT', 44200);

--- query ---
// NKL Ortho Proliferation Signal 1:10 lookup, binder = ΔA1, SQVLKA (ligand) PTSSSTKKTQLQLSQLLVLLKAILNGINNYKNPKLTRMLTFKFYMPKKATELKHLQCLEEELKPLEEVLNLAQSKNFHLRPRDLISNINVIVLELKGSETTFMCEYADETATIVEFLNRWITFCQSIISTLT , result: 27700
